Test system: H3K27 methylation
Experiment: Western blot of histone methylation in BT549
Assay type: cell-based, Human
Details: Homo sapiens, BT-549, 5 days; breast cancer cells, Fig. 4d (BT549); read-out: IC50 of H3K27 methylation inhibition
pIC50: −log10 of the molar value.
observed_property: pIC50

Task: Specify measured pIC50 for "Cc1cc(C)c(CNC(=O)c2cc(-c3ccc(CN4CCOCC4)cc3)cc3c2cnn3C2CCCC2)c(=O)[nH]1" .
Result: ~7.30

* * *

System: NB4
Experiment: Cell proliferation, MTT assay
Format: cell-based
Settings: Homo sapiens, NB-4, 360 h; NB4, 15-day treatment; read-out: Anti-proliferative activity EC50
observed_property: pEC50
When answering, recall that pEC50 equals minus log10 of the concentration in mol/L, and write that number alone.

Task: Specify measured pEC50 for "CC(C)N(CCCNC(=O)Nc1ccc(C(C)(C)C)cc1)C[C@H]1O[C@@H](n2ccc3c(N)ncnc32)[C@H](O)[C@@H]1O" .
Result: 4.66
